Test system: MKL-1
Assay: qHTS assay to identify novel small-molecules to repurpose for Merkel cell carcinoma treatment (AID 1296009); also: nearly all actives have a fitted effect of over 60% in size
Settings: MCC and control cell lines, CellTiter-Glo viability, 72 h; series mostly up to 46 µM
Records with an inconclusive call do not appear. Activity calls are given as the source filed them. Calls follow the shape of the dose curve; as a rule, active = well fitted inhibition curve with a large enough effect; inconclusive = small, poorly fitted or top-dose-only effect; inactive = flat fitted curve, though single readings scatter.
Possible outcomes: active, inactive

• Cc1cc(C)c(/C=C2\C(=O)Nc3ccccc32)[nH]1 = inactive
• CN(C)CC/C=C1\c2ccccc2COc2ccccc21 = inactive
• COc1ccc2c(c1OC)C(=O)O[C@@H]2[C@H]1c2c(cc3c(c2OC)OCO3)CCN1C = inactive
• CSc1ccc(C(=O)c2[nH]c(=O)[nH]c2C)cc1 = inactive
• CN(C)CC[C@@H](c1ccc(Br)cc1)c1ccccn1 = inactive
• c1cc(CN2CCCCC2)cc(OCCCNc2nc3ccccc3s2)c1 = inactive
• O=C(O)CN(CCN(CC(=O)O)CC(=O)O)CCN(CC(=O)O)CC(=O)O = inactive
• C[n+]1cc2c3c(ccc2c2ccc4cc5c(cc4c21)OCO5)OCO3 = active
• CN(C)CCCN1c2ccccc2Sc2ccccc21 = inactive
• CCCNC(C)C(=O)Nc1ccccc1C (configuration not stated) = inactive
• CCCN(CCC)C(=O)C(CCC(=O)O)NC(=O)c1ccccc1 (configuration not stated) = inactive
• Cc1ccc(/C(=C\CN2CCCC2)c2ccccn2)cc1 = inactive
